Assignment: determine reported DT50 in 1 mM NaN3, No DTT for the given molecules.
- PROTOCOL_NOTES: Photochemical cleavage assays of incorporated nucleotide analogs (365 nm UV light, DT50)
- Format: physicochemical
- SETUP_CONDITIONS: Table 1, C^7-HOMedA analogs; 1 mM NaN3, no DTT; 365 nm UV, 0.70 W/cm^2; average ± 1SD, triplicate
// note: answer is a bare numeric in s

Lookup: Look at this molecule and give its reported DT50 in 1 mM NaN3, No DTT. "Nc1ncnc2c1c(COCc1ccccc1[N+](=O)[O-])cn2[C@H]1C[C@H](O)[C@@H](COP(=O)(O)OP(=O)(O)OP(=O)(O)O)O1"
Found: 3.6

Lookup: Look at this molecule and give its reported DT50 in 1 mM NaN3, No DTT. CC(C)C(OCc1cn([C@H]2C[C@H](O)[C@@H](COP(=O)(O)OP(=O)(O)OP(=O)(O)O)O2)c2ncnc(N)c12)c1c([N+](=O)[O-])cccc1[N+](=O)[O-] (single isomer, unassigned) [dA.III.c ds2]
Found: 2.8

Lookup: Look at this molecule and give its reported DT50 in 1 mM NaN3, No DTT. CC(C)C(OCc1cn([C@H]2C[C@H](O)[C@@H](COP(=O)(O)OP(=O)(O)OP(=O)(O)O)O2)c2ncnc(N)c12)c1c([N+](=O)[O-])cccc1[N+](=O)[O-] (single isomer, unassigned) [dA.III.c ds1]
Found: 3.4

Lookup: Look at this molecule and give its reported DT50 in 1 mM NaN3, No DTT. COc1ccc(C(OCc2cn([C@H]3C[C@H](O)[C@@H](COP(=O)(O)OP(=O)(O)OP(=O)(O)O)O3)c3ncnc(N)c23)C(C)C)c([N+](=O)[O-])c1 (single isomer, unassigned) [dA.III.b ds2]
Found: 1.1

Lookup: Look at this molecule and give its reported DT50 in 1 mM NaN3, No DTT. CC(C)C(OCc1cn([C@H]2C[C@H](O)[C@@H](COP(=O)(O)OP(=O)(O)OP(=O)(O)O)O2)c2ncnc(N)c12)c1ccccc1[N+](=O)[O-] (single isomer, unassigned) [dA.III.a ds1]
Found: 4.5

Lookup: Look at this molecule and give its reported DT50 in 1 mM NaN3, No DTT. CC(C)C(OCc1cn([C@H]2C[C@H](O)[C@@H](COP(=O)(O)OP(=O)(O)OP(=O)(O)O)O2)c2ncnc(N)c12)c1ccccc1[N+](=O)[O-] (single isomer, unassigned) [dA.III.a ds2]
Found: 2.2

Lookup: Look at this molecule and give its reported DT50 in 1 mM NaN3, No DTT. COc1ccc(C(OCc2cn([C@H]3C[C@H](O)[C@@H](COP(=O)(O)OP(=O)(O)OP(=O)(O)O)O3)c3ncnc(N)c23)C(C)C)c([N+](=O)[O-])c1 (single isomer, unassigned) [dA.III.b ds1]
Found: 7.0
